The measurements presented in this section are drawn from patent US8236820B2.

# Tested on: SW480
# Assay protocol: Cell viability (MTT) assay, 24-h IC50, SW480
# Format: cell-based, human
# Reported conditions: Homo sapiens, SW480, 24 h, read-out: 24-h IC50
Assay metric: IC50 (µM)
Please respond with the number in µM and leave the unit unwritten.

Completed entries (count: 3):
[[record]]
compound = "CCOP(=O)(OCC)OCCCCOC(=O)CC1=C(C)/C(=C/c2ccc(SC)cc2)c2ccc(F)cc21"
assay_metric = "IC50"
recorded_value = 73

[[record]]
compound = "CCOP(=O)(OCC)OCCCCOC(=O)CC1=C(C)/C(=C/c2ccc([S+](C)[O-])cc2)c2ccc(F)cc21 (stereo not shown)"
assay_metric = "IC50"
recorded_value = 98

[[record]]
compound = "CCOP(=O)(OCC)OCCCCOC(=O)C(C)c1ccc(-c2ccccc2)c(F)c1 (stereo not shown)"
assay_metric = "IC50"
recorded_value = 104


--- query ---
-- ask Could you share which IC50 value was measured for CCOP(=O)(OCC)OCCCCOC(=O)C(C)c1ccc(CC(C)C)cc1 (stereo not shown) ?
-- reply 75

====

# System: MCF-7
# Assay protocol: Cell viability (MTT) assay, 24-h IC50, MCF-7
# Assay type: cell-based, human
# Reported conditions: Homo sapiens, MCF7, 24 h, read-out: IC50 (growth of human cancer cells)
Assay metric: IC50

-- ask // IC50 lookup, key: CCCC(CCC)C(=O)Oc1ccc(COP(=O)(OCC)OCC)cc1
-- reply 51 µM

====

# Tested on: MDA-MB231
# Assay protocol: Cell viability (MTT) assay, 24-h IC50, MDA-MB231
# Format: cell-based, human
# Reported conditions: Homo sapiens, MDA-MB-231, 24 h, read-out: IC50 (growth of human cancer cells)
Assay metric: IC50 (µM)
All answers are understood in µM, so give the number only.

-- ask Could you share which IC50 value was measured for CCCC(CCC)C(=O)Oc1ccc(COP(=O)(OCC)OCC)cc1 ?
-- reply 30
